Target: human progesterone receptor B (hPRB) (Homo sapiens, UniProt P06401)
Construct: expressed in transfected cells; host or cells: Chinese hamster ovary cells (CHO)
Sequence (P06401 whole entry): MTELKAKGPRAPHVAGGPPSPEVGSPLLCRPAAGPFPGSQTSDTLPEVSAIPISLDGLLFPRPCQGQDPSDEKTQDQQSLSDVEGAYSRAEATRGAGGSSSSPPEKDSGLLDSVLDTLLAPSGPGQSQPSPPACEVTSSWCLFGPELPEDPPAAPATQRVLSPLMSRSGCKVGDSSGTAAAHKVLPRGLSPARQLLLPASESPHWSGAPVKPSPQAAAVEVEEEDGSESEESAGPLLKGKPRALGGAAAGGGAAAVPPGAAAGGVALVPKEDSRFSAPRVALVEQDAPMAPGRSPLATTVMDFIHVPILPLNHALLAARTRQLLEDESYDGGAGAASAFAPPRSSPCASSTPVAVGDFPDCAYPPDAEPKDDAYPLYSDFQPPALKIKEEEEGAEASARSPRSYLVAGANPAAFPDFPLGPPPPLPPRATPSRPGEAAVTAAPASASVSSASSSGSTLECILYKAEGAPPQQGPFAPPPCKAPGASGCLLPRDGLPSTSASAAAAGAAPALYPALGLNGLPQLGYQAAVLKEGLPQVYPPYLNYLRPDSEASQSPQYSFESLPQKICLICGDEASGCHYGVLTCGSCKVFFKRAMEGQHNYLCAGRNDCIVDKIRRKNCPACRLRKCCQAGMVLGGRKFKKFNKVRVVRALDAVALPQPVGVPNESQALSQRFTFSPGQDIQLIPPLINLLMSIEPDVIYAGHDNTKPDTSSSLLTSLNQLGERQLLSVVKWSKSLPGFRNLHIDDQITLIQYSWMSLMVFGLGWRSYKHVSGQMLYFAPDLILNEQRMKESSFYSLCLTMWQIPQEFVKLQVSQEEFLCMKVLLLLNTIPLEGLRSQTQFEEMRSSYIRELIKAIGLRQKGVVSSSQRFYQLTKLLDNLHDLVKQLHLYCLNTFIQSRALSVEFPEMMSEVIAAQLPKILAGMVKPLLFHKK
Test: transactivative progestagenic agonistic activity, CHO cells transfected with hPRB, MMTV-luciferase
Type: cell-based
Parameters: concentration or dose not given beside the values
Details: compared with (16α)-16-ethyl-21-hydroxy-19-norpregn-4ene-3,20-dione; CHO-hPRB, 16 h, 37° C.
API: label(entry) gives criterion met if the entry's Progestational Activity (%) is strictly smaller than 40%; on equality or larger values it gives criterion not met.

compound: CC1CC2=CC(=O)CCC2C2CCC3(C)C(CCCC3(C)O)C12 (centres unmarked)
label: criterion not met

compound: CC1(O)CCCC2C3CCC4=CC(=O)CCC4C3CCC21C (centres unmarked) [Reference compound A]
label: criterion not met

compound: CCC1(O)CCCC2C3C(C)CC4=CC(=O)CCC4C3CCC21C (centres unmarked)
label: criterion met

compound: CC1CC2=CC(=O)CCC2C2CCC3(C)C(O)CCCC3C12 (centres unmarked) [Reference compound B]
label: criterion met

compound: C[C@@H]1CC2=CC(=O)CC[C@@H]2[C@H]2CC[C@@]3(C)[C@@H](CC[C@]3(C)O)[C@@H]21 [Reference compound C]
label: criterion not met
